- Tested on: α2δ subunit
- PROTOCOL_SUMMARY: radioligand binding assay using [3H]gabapentin and the α2δ subunit
- PARTICULARS: [3H]gabapentin radioligand; α2δ subunit derived from porcine brain tissue
Exercise: for every item that follows, state its recorded Activity (binding affinity).
Please state the number and follow it with the unit.

Tell me the measured Activity (binding affinity) of O=C(O)CNCCSc1ccc(Cl)cc1 [Example 6] , please.
198 nM

Tell me the measured Activity (binding affinity) of O=C(O)CNCCOc1ccc(Cl)cc1Cl [Example 9] , please.
1665 nM

Tell me the measured Activity (binding affinity) of O=C(O)CNCCSCc1ccc(Cl)cc1 [Example 10] , please.
507 nM

Tell me the measured Activity (binding affinity) of O=C(O)CNCCSc1ccc2ccncc2c1 [Example 11] , please.
71 nM

Tell me the measured Activity (binding affinity) of NCc1ccc(SCCNCC(=O)O)cc1 [Example 8] , please.
987 nM

Tell me the measured Activity (binding affinity) of CCOC(=O)CNCCSc1ccc(Cl)cc1 [Example 12] , please.
5406 nM

Source: patent US20040092498A1
